Every entry's value here was drawn from patent US10059674B2.

Test method notes: Liver microsomal metabolism stability test
Run conditions: rat, microsomes, pH 7.47
Measured metric: half-life at 1 µM (min)

>>> readout_value("COc1ccc2[nH]c([S+]([O-])Cc3ncc(C)c(OC)c3C)nc2c1 (stereo not shown) [omeprazole, reference compound]")
15.7

* * *

Quick list: recovery at 90 min per entry.
Test method notes: MDCK cell permeability test
Run conditions: dog, MDCK, Recovery rate A→B, MDCK, 90 min; 1st line of the compound (condition not given; method: without / with 10 μM cyclosporine A)
Measured metric: recovery at 90 min (%)

>>> readout_value("CC(C)CN(C[C@@H](O)[C@H](Cc1ccccc1)NC(=O)O[C@H]1CCOC1)S(=O)(=O)c1ccc(N)cc1 [Amprenavir, amprenavir, reference compound]")
106
>>> readout_value("CCOc1cccc(Nc2nn(C)c3c2Cc2cc(OCC)c(OCC(N)=O)cc2-3)c1 [LL-01]")
93.8
>>> readout_value("CCOc1cccc(Nc2nn(C)c3c2Cc2cc(OCC)c(OCC(=O)NO)cc2-3)c1 [LL-02]")
89.4

* * *

Test method notes: In vivo pharmacokinetic test, drug concentration in blood plasma by LC-MS/MS
Set-up: species or system SD rats
Run conditions: SD, rat, plasma, po, 10 mg/kg, SD rats, oral 10 mg/kg, 0.25 h, animal 202M
Measured metric: concentration at 0.25 h

>>> readout_value("CCOc1cccc(Nc2nn(C)c3c2Cc2cc(OCC)c(OCC(N)=O)cc2-3)c1")
"466 ng/mL"

* * *

Test method notes: In vivo pharmacokinetic test, drug concentration in blood plasma by LC-MS/MS
Set-up: species or system SD rats
Run conditions: male, SD, rat, plasma, po, 10 mg/kg, male SD rats, single oral 10 mg/kg, animal 203M
Measured metric: AUC(0-t) (ng·h/mL)

>>> readout_value("CCOc1cccc(Nc2nn(C)c3c2Cc2cc(OCC)c(OCC(N)=O)cc2-3)c1")
9000

* * *

Test method notes: In vivo pharmacokinetic test, drug concentration in blood plasma by LC-MS/MS
Design: species or system SD rats
Run conditions: male, SD, rat, plasma, po, 10 mg/kg, SD rats, oral 10 mg/kg, 2 h, Mean
Measured metric: concentration at 2 h (ng/mL)

>>> readout_value("CCOc1cccc(Nc2nn(C)c3c2Cc2cc(OCC)c(OCC(N)=O)cc2-3)c1")
920

* * *

Test method notes: In vivo pharmacokinetic test, drug concentration in blood plasma by LC-MS/MS
Parameters: species or system SD rats
Run conditions: rat, plasma; male SD rats, single intravenous 1 mg/kg, animal 101M
Measured metric: Tmax

>>> readout_value("CCOc1cccc(Nc2nn(C)c3c2Cc2cc(OCC)c(OCC(N)=O)cc2-3)c1 [LL-01]")
"4.8 min"

* * *

Test method notes: In vivo pharmacokinetic test, drug concentration in blood plasma by LC-MS/MS
Design: species or system SD rats
Run conditions: male, SD, rat, plasma, iv, 1 mg/kg, SD rats, intravenous 1 mg/kg, 0.08 h, animal 103M
Measured metric: concentration at 0.08 h

>>> readout_value("CCOc1cccc(Nc2nn(C)c3c2Cc2cc(OCC)c(OCC(N)=O)cc2-3)c1")
"2690 ng/mL"

* * *

Test method notes: In vivo pharmacokinetic test, drug concentration in blood plasma by LC-MS/MS
Design: species or system SD rats
Run conditions: male, SD, rat, plasma, po, 10 mg/kg, male SD rats, single oral 10 mg/kg, animal 202M; read-out: AUCINF—pred
Measured metric: AUC(0-inf) (ng·h/mL)

>>> readout_value("CCOc1cccc(Nc2nn(C)c3c2Cc2cc(OCC)c(OCC(N)=O)cc2-3)c1")
17800
